Biological target: T1, human GIP receptor (human) (UniProt P48546)
T1 sequence (looked up): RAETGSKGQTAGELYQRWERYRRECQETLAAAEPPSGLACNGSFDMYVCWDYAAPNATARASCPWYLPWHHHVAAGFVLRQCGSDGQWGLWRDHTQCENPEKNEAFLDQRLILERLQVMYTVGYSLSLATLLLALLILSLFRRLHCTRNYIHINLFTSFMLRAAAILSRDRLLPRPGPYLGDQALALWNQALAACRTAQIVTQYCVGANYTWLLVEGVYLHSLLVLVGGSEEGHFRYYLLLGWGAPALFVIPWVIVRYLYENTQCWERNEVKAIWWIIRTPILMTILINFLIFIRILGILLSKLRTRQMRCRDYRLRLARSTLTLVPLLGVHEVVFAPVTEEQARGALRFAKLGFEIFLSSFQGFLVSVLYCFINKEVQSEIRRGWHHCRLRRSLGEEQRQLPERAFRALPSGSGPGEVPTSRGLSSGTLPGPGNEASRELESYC
Test: cell-based or functional assay
Starred links: 1 amine or outer side, 2 acyl side, 3 side chain; linkers in the order of their positions; H or OH if unused. Non-standard residues stand in square brackets, D forms with d. Groups on a side chain read outwards from the residue. No end group written: not given here. *: point of attachment. C20 diacid = O=C(O)CCCCCCCCCCCCCCCCCCC(=O)*; αMePhe(2-F) = C[C@](N)(Cc1ccccc1F)C(=O)O; γGlu = O=C(O)[C@H](CCC(=O)[*:2])N[*:1]; αMeL = CC(C)C[C@](C)(N)C(=O)O; Orn = NCCC[C@H](N)C(=O)O; AEEA = NCCOCCOCC(=O)O; Aib = CC(C)(N)C(=O)O
Range-based classes on measured cAMP Rel EC50 (1% HSA): low bin = under 2 nM, mid bin = from 2 nM up to 30 nM, high bin = 30 nM and over

- Y[Aib]QGT[αMePhe(2-F)]TSDFSILLDKQAQKAFIEYLLEGGPSSGEPPPSEG-NH2 (not fully specified (residue 20)) [Example 346]: mid bin
- Y[Aib]QGTFTSDYSK[αMeL]LDKK([AEEA-γGlu-C20 diacid])AQQAFIQWLIEGGPSSGEPPPSEG-NH2 [Example 314]: high bin
- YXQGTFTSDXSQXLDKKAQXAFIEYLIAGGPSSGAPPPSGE (non-natural residues; lipidated Lys; C-terminal amide; synthetic construct; SITE 2: note = 2-Aminoisobutyric Acid; SITE 10: note = 3-(4-Pyridyl)-L-alanine; SITE 13: note = alpha-methyl-leucine; SITE 17: note = Lysine is chemically modified through conjugation of the epsilon-amino group of the Lysine side chain with D-Glutamic acid-(gamma-Glu)-CO-(CH2)16) [Example 1085]: mid bin
- YXQGTXTSDXSILLDKKAQXAFIEXLEEGGPSSGAPPPSGSGE (synthetic construct; SITE 2: note = 2-Aminoisobutyric Acid; SITE 6: note = alpha-methyl-2-fluoro-L-phenylalanine; SITE 10: note = 3-(4-Pyridyl)-L-alanine; SITE 17: note = Lysine is chemically modified through conjugation of the epsilon-amino group of the Lysine side chain with (gamma-Glu)2-CO-(CH2)1) [Example 666]: low bin
- YXQGTXTSDXXIXLDXQAQXEFIEXLIEGGPSSGAPPPSGSE (not fully specified; no fatty acid; synthetic construct; SITE 2: note = 2-Aminoisobutyric Acid; SITE 6: note = alpha-methyl-2-fluoro-L-phenylalanine; SITE 10: note = 3-(4-Pyridyl)-L-alanine; SITE 11: note = alpha-methyl-L-serine; SITE 13: note = alpha-methyl-leucine; SITE 16: note = L-ornithine; SITE 20: note = 3-(4-Pyridyl)-L-alanine) [Example 1233]: low bin
- Y[Aib]QGTFTSDYSI[αMeL]LDKIAAK([AEEA-AEEA-γGlu-C20 diacid])[Orn]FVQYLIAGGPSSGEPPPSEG-NH2 [Example 308]: high bin
- YXQGTXTSDXXIXLDXKAAXEFIEXLVEGGPSSGEPPPSGS (synthetic construct; SITE 2: note = 2-Aminoisobutyric Acid; SITE 6: note = alpha-methyl-2-fluoro-L-phenylalanine; SITE 10: note = 3-(4-Pyridyl)-L-alanine; SITE 11: note = alpha-methyl-L-serine; SITE 13: note = alpha-methyl-leucine; SITE 16: note = L-ornithine; SITE 17: note = Lysine is chemically mo) [Example 695]: low bin
- YXQGTXTSDXXIXLDXKAQXNFIEXLQEGGPSSGEPPPEGTE (synthetic construct; SITE 2: note = 2-Aminoisobutyric Acid; SITE 6: note = alpha-methyl-2-fluoro-L-phenylalanine; SITE 10: note = 3-(4-Pyridyl)-L-alanine; SITE 11: note = alpha-methyl-L-serine; SITE 13: note = alpha-methyl-leucine; SITE 16: note = L-ornithine; SITE 17: note = Lysine is chemically mo) [Example 526]: mid bin
- YXQGTFTSDXSQXLDXKAQXAFIQXLLEGGPSSGAPPPSGSEEE (Aib, 4Pal, Orn, Me4Pal, αMeY; acylated lysine; amide; synthetic construct; SITE 2: note = 2-Aminoisobutyric Acid; SITE 10: note = 3-(4-Pyridyl)-L-alanine; SITE 13: note = alpha-methyl-leucine; SITE 16: note = L-ornithine; SITE 17: note = Lysine is chemically modified through conjugation of the epsilon-amino group of the Lysine side chain with D-Glutami) [Example 1083]: mid bin
- YXQGTXTSDXXIXLDXKAQXQFIEXLQEGGPSSGEPPPEGTE (synthetic construct; SITE 2: note = 2-Aminoisobutyric Acid; SITE 6: note = alpha-methyl-2-fluoro-L-phenylalanine; SITE 10: note = 3-(4-Pyridyl)-L-alanine; SITE 11: note = alpha-methyl-L-serine; SITE 13: note = alpha-methyl-leucine; SITE 16: note = L-ornithine; SITE 17: note = Lysine is chemically mo) [Example 528]: low bin
